System: Mye-BP RUNX1 p.R107C
assay-details: drug sensitivity score (DSS) (DSS score); higher = more sensitive (stronger growth inhibition); extreme values may be limits of the assay
Would you kindly list drug sensitivity score for each of these compounds?
// return a plain number; no unit text

QUERY: Quick one: give measured drug sensitivity score for CCc1c2c(nc3ccc(OC(=O)N4CCC(N5CCCCC5)CC4)cc13)-c1cc3c(c(=O)n1C2)COC(=O)[C@]3(O)CC
RESULT: 7

QUERY: Fill in drug sensitivity score for record O=P1(NCCCl)OCCCN1CCCl (stereo unspecified) [Ifosfamide]
RESULT: 0

QUERY: Please indicate drug sensitivity score recorded for CO[C@H]1C[C@@H]2CC[C@@H](C)[C@@](O)(O2)C(=O)C(=O)N2CCCC[C@H]2C(=O)O[C@H]([C@H](C)C[C@@H]2CC[C@@H](OCCO)[C@H](OC)C2)CC(=O)[C@H](C)/C=C(\C)[C@@H](O)[C@@H](OC)C(=O)[C@H](C)C[C@H](C)/C=C/C=C/C=C/1C
RESULT: 0

QUERY: Identify measured drug sensitivity score associated with C=C(c1ccc(C(=O)O)cc1)c1cc2c(cc1C)C(C)(C)CCC2(C)C
RESULT: 0.4

QUERY: State its drug sensitivity score for this compound: O=C1CN2Cc3c(ccc(Cl)c3Cl)N=C2N1 [Anagrelide]
RESULT: 0

QUERY: Give me measured drug sensitivity score, please, for this compound: C[C@@H](C(=O)O)c1ccc(-c2ccccc2)c(F)c1
RESULT: 0

QUERY: Please report drug sensitivity score for the following compound: Nc1ccccc1NC(=O)c1ccc(CNC(=O)OCc2cccnc2)cc1
RESULT: 11.1

QUERY: Please list drug sensitivity score recorded for the compound CN(C)/N=N/c1[nH]cnc1C(N)=O
RESULT: 0

QUERY: Return drug sensitivity score (reported value) for this compound: COc1cc2ncnc(Nc3ccc(F)c(Cl)c3)c2cc1OCCCN1CCOCC1
RESULT: 1.5

QUERY: Indicate the recorded drug sensitivity score value for this compound: CC1(C)CCC(c2ccc(Cl)cc2)=C(CN2CCN(c3ccc(C(=O)NS(=O)(=O)c4ccc(N[C@H](CCN5CCOCC5)CSc5ccccc5)c(S(=O)(=O)C(F)(F)F)c4)cc3)CC2)C1
RESULT: 31.2

QUERY: Return the recorded drug sensitivity score value; entry: CC(=O)Nc1cccc(-n2c(=O)n(C3CC3)c(=O)c3c(Nc4ccc(I)cc4F)n(C)c(=O)c(C)c32)c1
RESULT: 6.8

QUERY: Quickly give me recorded drug sensitivity score for Cc1nc(Nc2ncc(C(=O)Nc3c(C)cccc3Cl)s2)cc(N2CCN(CCO)CC2)n1
RESULT: 12.7

QUERY: Please indicate drug sensitivity score recorded for CO[C@@H](C(=O)N1Cc2[nH]nc(NC(=O)c3ccc(N4CCN(C)CC4)cc3)c2C1)c1ccccc1
RESULT: 11.7

QUERY: Look up drug sensitivity score of CC1(C)NC(=O)N(c2ccc([N+](=O)[O-])c(C(F)(F)F)c2)C1=O [Nilutamide] and report it.
RESULT: 0

QUERY: For C[C@]1(c2nc3c(C(N)=O)cccc3[nH]2)CCCN1 , write its drug sensitivity score.
RESULT: 1.2

QUERY: Return the recorded drug sensitivity score value; entry: CC(C)C[C@H](NC(=O)[C@H](Cc1ccccc1)NC(=O)c1cnccn1)B(O)O
RESULT: 29.1
